Catalogue of Voltammetry peak potential values
# target-or-system: lysozyme (Gallus gallus, UniProt P00698)
# Construct: purchased Sigma-Aldrich
# Sequence (P00698 19-147): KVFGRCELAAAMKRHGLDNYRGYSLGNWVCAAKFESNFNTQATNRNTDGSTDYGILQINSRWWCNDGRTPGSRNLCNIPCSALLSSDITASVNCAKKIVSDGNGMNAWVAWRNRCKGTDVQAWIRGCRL
# test-details: Voltammetry, interaction with lysozyme
# experimental-conditions: CV, 100 μM complex, 0 μM lysozyme, 0.1 M phosphate buffer pH 6.8
State the value with its unit after it.

Observe how each entry below is paired with its result.
1. CN(C)C1=[S+][Au-]2([S]1)[n+]1cccc(O)c1-c1c(O)ccc[n+]12.[Cl-].[Cl-] [C2, [Au(BPYH)(DMDTC)]Cl2] | 0.7921 V
2. CCN(CC)C1=[S+][Au-]2([S]1)[n+]1cccc(O)c1-c1c(O)ccc[n+]12.[Cl-].[Cl-] [C3, [Au(BPYH)(DEDTC)]Cl2] | 0.7965 V
3. Oc1ccc[n+]2c1-c1c(O)ccc[n+]1[Au-]21[S]C(N(Cc2ccccc2)Cc2ccccc2)=[S+]1.[Cl-].[Cl-] [C4, [Au(BPYH)(DBDTC)]Cl2] | 0.7965 V

Which Voltammetry peak potential reading was recorded for the compound Oc1ccc[n+]2c1-c1c(O)ccc[n+]1[Au-]2([Cl])[Cl].[Cl-] [C1, [Au(BPYH)(Cl)2]Cl] ?
0.739 V

###

# target-or-system: lysozyme (Gallus gallus)
# Construct: purchased Sigma-Aldrich
# test-details: Voltammetry, interaction with lysozyme
# experimental-conditions: CV, 100 μM complex, 10 μM lysozyme, pH 6.8
endpoint-label: Voltammetry peak potential (V)
Report only the number, with the unit V understood.

1. CN(C)C1=[S+][Au-]2([S]1)[n+]1cccc(O)c1-c1c(O)ccc[n+]12.[Cl-].[Cl-] [C2, [Au(BPYH)(DMDTC)]Cl2] | 0.8319
2. Oc1ccc[n+]2c1-c1c(O)ccc[n+]1[Au-]21[S]C(N(Cc2ccccc2)Cc2ccccc2)=[S+]1.[Cl-].[Cl-] [C4, [Au(BPYH)(DBDTC)]Cl2] | 0.8275
3. CCN(CC)C1=[S+][Au-]2([S]1)[n+]1cccc(O)c1-c1c(O)ccc[n+]12.[Cl-].[Cl-] [C3, [Au(BPYH)(DEDTC)]Cl2] | 0.8363

Please state recorded Voltammetry peak potential (tested on lysozyme (Gallus gallus)) of Oc1ccc[n+]2c1-c1c(O)ccc[n+]1[Au-]2([Cl])[Cl].[Cl-] [C1, [Au(BPYH)(Cl)2]Cl]
0.8762

###

# target-or-system: lysozyme (Gallus gallus, UniProt P00698)
# Construct: purchased Sigma-Aldrich
# test-details: Voltammetry, interaction with lysozyme
# experimental-conditions: CV, 100 μM complex, 4 μM lysozyme, pH 6.8
endpoint-label: Voltammetry peak potential (V)
Quick note: give the figure in V, leave out the unit.

1. CCN(CC)C1=[S+][Au-]2([S]1)[n+]1cccc(O)c1-c1c(O)ccc[n+]12.[Cl-].[Cl-] [C3, [Au(BPYH)(DEDTC)]Cl2] | 0.8231

Please provide the recorded Voltammetry peak potential for CN(C)C1=[S+][Au-]2([S]1)[n+]1cccc(O)c1-c1c(O)ccc[n+]12.[Cl-].[Cl-] [C2, [Au(BPYH)(DMDTC)]Cl2] , tested on lysozyme (Gallus gallus, UniProt P00698).
0.8186

Recall the recorded Voltammetry peak potential for Oc1ccc[n+]2c1-c1c(O)ccc[n+]1[Au-]2([Cl])[Cl].[Cl-] [C1, [Au(BPYH)(Cl)2]Cl] with lysozyme (Gallus gallus, UniProt P00698) and state it.
0.8319

State its Voltammetry peak potential on lysozyme (Gallus gallus, UniProt P00698): Oc1ccc[n+]2c1-c1c(O)ccc[n+]1[Au-]21[S]C(N(Cc2ccccc2)Cc2ccccc2)=[S+]1.[Cl-].[Cl-] [C4, [Au(BPYH)(DBDTC)]Cl2]
0.8186

###

The reader will find reported Voltammetry peak potential values listed item by item below.
# target-or-system: lysozyme (Gallus gallus, UniProt P00698)
# Construct: purchased Sigma-Aldrich
# test-details: Voltammetry, interaction with lysozyme
# experimental-conditions: SWV, 100 μM complex, 1 μM lysozyme, pH 6.8

1. CN(C)C1=[S+][Au-]2([S]1)[n+]1cccc(O)c1-c1c(O)ccc[n+]12.[Cl-].[Cl-] [C2, [Au(BPYH)(DMDTC)]Cl2] | 0.7934 V

Entry under review: CCN(CC)C1=[S+][Au-]2([S]1)[n+]1cccc(O)c1-c1c(O)ccc[n+]12.[Cl-].[Cl-] [C3, [Au(BPYH)(DEDTC)]Cl2] . Reported Voltammetry peak potential?
0.8034 V

Returns the measured Voltammetry peak potential for the input compound. Input: Oc1ccc[n+]2c1-c1c(O)ccc[n+]1[Au-]21[S]C(N(Cc2ccccc2)Cc2ccccc2)=[S+]1.[Cl-].[Cl-] [C4, [Au(BPYH)(DBDTC)]Cl2]
0.7934 V

I have this compound here, Oc1ccc[n+]2c1-c1c(O)ccc[n+]1[Au-]2([Cl])[Cl].[Cl-] [C1, [Au(BPYH)(Cl)2]Cl] , and I need its recorded Voltammetry peak potential.
0.8034 V

###

# System: ovarian cancer cell line A2780
# test-details: Cytotoxicity assay (MTT, 72 h)
# Assay type: cell-based, human
# experimental-conditions: A2780, MTT after 72 h, mean (SD)
endpoint-label: IC50 (µM)
Just the number please, in µM, no unit attached.

1) [Cl-].[Cl-].[Cl][Au-]1([Cl])[n+]2ccc[n+]3c2-c2[n+]1ccc[n+]2[Au-]3([Cl])[Cl] [C5, [Au2(BPM)(Cl)4]Cl2] | 15.4
2) Oc1ccc[n+]2c1-c1c(O)ccc[n+]1[Au-]2([Cl])[Cl].[Cl-] [C1, [Au(BPYH)(Cl)2]Cl] | 23
3) Oc1ccc[n+]2c1-c1c(O)ccc[n+]1[Au-]21[S]C(N(Cc2ccccc2)Cc2ccccc2)=[S+]1.[Cl-].[Cl-] [C4, [Au(BPYH)(DBDTC)]Cl2] | 7.3
4) N.N.[Cl][Pt][Cl] [Cisplatin, reference compound] | 1.5
5) [Cl-].[Cl-].[Cl-].[Cl-].c1ccc(C[N+](Cc2ccccc2)=C2[S][Au-]3([S]2)[n+]2ccc[n+]4c2-c2[n+]3ccc[n+]2[Au-]42[S]C(=[N+](Cc3ccccc3)Cc3ccccc3)[S]2)cc1 [C8, [Au2(BPM)(DBDTC)2]Cl4] | 3.8

Short answer please: IC50, ovarian cancer cell line A2780, entry CN(C)C1=[S+][Au-]2([S]1)[n+]1cccc(O)c1-c1c(O)ccc[n+]12.[Cl-].[Cl-] [C2, [Au(BPYH)(DMDTC)]Cl2]
0.9

###

# target-or-system: lysozyme (Gallus gallus, UniProt P00698)
# Construct: purchased Sigma-Aldrich
# test-details: Voltammetry, interaction with lysozyme
# experimental-conditions: SWV, 100 μM complex, 4 μM lysozyme, pH 6.8
endpoint-label: Voltammetry peak potential (V)
Reply with just the number (in V).

Example entries and their recorded answers appear below.
1) Oc1ccc[n+]2c1-c1c(O)ccc[n+]1[Au-]2([Cl])[Cl].[Cl-] [C1, [Au(BPYH)(Cl)2]Cl] | 0.8387
2) CCN(CC)C1=[S+][Au-]2([S]1)[n+]1cccc(O)c1-c1c(O)ccc[n+]12.[Cl-].[Cl-] [C3, [Au(BPYH)(DEDTC)]Cl2] | 0.8135
3) Oc1ccc[n+]2c1-c1c(O)ccc[n+]1[Au-]21[S]C(N(Cc2ccccc2)Cc2ccccc2)=[S+]1.[Cl-].[Cl-] [C4, [Au(BPYH)(DBDTC)]Cl2] | 0.8085

Can you look up the measured Voltammetry peak potential of CN(C)C1=[S+][Au-]2([S]1)[n+]1cccc(O)c1-c1c(O)ccc[n+]12.[Cl-].[Cl-] [C2, [Au(BPYH)(DMDTC)]Cl2] for me?
0.8085

###

# target-or-system: lysozyme (Gallus gallus)
# Construct: purchased Sigma-Aldrich
# test-details: Voltammetry, interaction with lysozyme
# experimental-conditions: SWV, 100 μM complex, 10 μM lysozyme, pH 6.8
endpoint-label: Voltammetry peak potential (V)
Give just the numeric value; V need not be written.

Some compounds with recorded Voltammetry peak potential:
1) Oc1ccc[n+]2c1-c1c(O)ccc[n+]1[Au-]21[S]C(N(Cc2ccccc2)Cc2ccccc2)=[S+]1.[Cl-].[Cl-] [C4, [Au(BPYH)(DBDTC)]Cl2] | 0.8135
2) CN(C)C1=[S+][Au-]2([S]1)[n+]1cccc(O)c1-c1c(O)ccc[n+]12.[Cl-].[Cl-] [C2, [Au(BPYH)(DMDTC)]Cl2] | 0.8135

# lookup: Voltammetry peak potential of Oc1ccc[n+]2c1-c1c(O)ccc[n+]1[Au-]2([Cl])[Cl].[Cl-] [C1, [Au(BPYH)(Cl)2]Cl]
0.8639

Quick check: Voltammetry peak potential of CCN(CC)C1=[S+][Au-]2([S]1)[n+]1cccc(O)c1-c1c(O)ccc[n+]12.[Cl-].[Cl-] [C3, [Au(BPYH)(DEDTC)]Cl2] ?
0.8236

###

# target-or-system: lysozyme (Gallus gallus, UniProt P00698)
# Construct: purchased Sigma-Aldrich
# test-details: Voltammetry, interaction with lysozyme
# experimental-conditions: CV, 100 μM complex, 1 μM lysozyme, pH 6.8
endpoint-label: Voltammetry peak potential (V)
Give just the numeric value; V need not be written.

State its Voltammetry peak potential on lysozyme (Gallus gallus, UniProt P00698): CCN(CC)C1=[S+][Au-]2([S]1)[n+]1cccc(O)c1-c1c(O)ccc[n+]12.[Cl-].[Cl-] [C3, [Au(BPYH)(DEDTC)]Cl2]
0.8098

Can you look up Voltammetry peak potential on lysozyme (Gallus gallus, UniProt P00698) for CN(C)C1=[S+][Au-]2([S]1)[n+]1cccc(O)c1-c1c(O)ccc[n+]12.[Cl-].[Cl-] [C2, [Au(BPYH)(DMDTC)]Cl2] ?
0.8009

GET /values?readout=Voltammetry peak potential&system=lysozyme (Gallus gallus, UniProt P00698)&item= Oc1ccc[n+]2c1-c1c(O)ccc[n+]1[Au-]2([Cl])[Cl].[Cl-] [C1, [Au(BPYH)(Cl)2]Cl]
0.8142

Query the reported Voltammetry peak potential for lysozyme (Gallus gallus, UniProt P00698); item: Oc1ccc[n+]2c1-c1c(O)ccc[n+]1[Au-]21[S]C(N(Cc2ccccc2)Cc2ccccc2)=[S+]1.[Cl-].[Cl-] [C4, [Au(BPYH)(DBDTC)]Cl2]
0.8098
